Origin of the recorded values: PubChem BioAssay AID1159580

# experimental.details: chemical genetic growth profiling, strain panel (AID 1159580);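 note: tested at 20 µM; growth read once vehicle control cultures reached saturation at 30 °C; lower values mean less growth of the strain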
# assay.context: S. cerevisiae deletion strains, growth OD, locus YPL256C, strain CLN2
The whole screen tested about 5,500 compounds, of which about 2,000 (36%) were called active. Inconclusive results (about 18%) are left out. Cut-off read from the data, not from the text of the source: active = normalized growth mostly below about 0.91 (no sharp cut-off); inconclusive = no clear call, values can overlap the other calls; inactive = mostly above about 0.92. Some of the results follow.
Classes used: YES for active, NO for inactive

molecule: CC(=O)O[C@]1(C(C)=O)CCC2C3C=C(Cl)C4=CC(=O)CC[C@]4(C)C3CC[C@@]21C (stereo partly specified)
label: NO
--
molecule: COc1ccc(-c2coc3c(O)c(OC)ccc3c2=O)cc1
label: NO
--
molecule: C[CH2][Hg][S]c1ccccc1C(=O)O
label: YES
--
molecule: O=c1ccc2ccccc2o1
label: NO
--
molecule: COc1ccc(-c2coc3c(O)c(O)c(OC)cc3c2=O)cc1
label: NO
--
molecule: CC(=O)[C@H]1CCC2C3C[C@H](C)C4=CC(=O)CC[C@]4(C)C3[C@@H](O)C[C@@]21C (stereo partly specified)
label: NO
--
molecule: CC[C@@H](CO)NCCN[C@@H](CC)CO
label: NO
--
molecule: CCCCCC(=O)O[C@]1(C(C)=O)CCC2C3CCC4=CC(=O)CC[C@]4(C)C3CC[C@@]21C (stereo partly specified)
label: NO
--
molecule: O=C(O)c1ccccc1OP(=O)(O)O
label: NO
--
molecule: CC(=O)O[C@]1(C(C)=O)CCC2C3C=C(C)C4=CC(=O)CCC4(C)C3CCC21C (stereo partly specified)
label: NO
--
molecule: CCCCOc1ccc(CC(=O)NO)cc1
label: NO
